Experiment: Critical (phase transition) temperature Tc by differential scanning calorimetry
Type: physicochemical
Conditions: with cholesterol, 1:1 molar ratio
quantity_measured: Tc (critical temperature), With cholesterol (1:1 molar ratio) (°C)

compound	data_value
CCCCCCCCCCCCCCCC(=O)OCC(C[n+]1c(C)cc(C)cc1C)OC(=O)CCCCCCCCCCCCCCC.F[P-](F)(F)(F)(F)F (stereo not drawn)	114.0
CCCCCCCCCCCCCC(=O)OCC(COC(=O)CCCCCCCCCCCCC)[n+]1c(C)cc(C)cc1C.F[P-](F)(F)(F)(F)F	64.8
CCCCCCCCCCCC(=O)OCC(COC(=O)CCCCCCCCCCC)[n+]1c(C)cc(C)cc1C.F[P-](F)(F)(F)(F)F	41.9
CCCCCCCCCCCCCC(=O)OCC(COC(=O)CCCCCCCCCCCCC)[n+]1c(C)cc(C)cc1C.F[B-](F)(F)F	55.2
CCCCCCCCCCCC(=O)Oc1ccc(CC[n+]2c(C)cc(C)cc2C)cc1OC(=O)CCCCCCCCCCC.F[P-](F)(F)(F)(F)F	126.9
CCCCCCCCCCCCCC(=O)OCC(COC(=O)CCCCCCCCCCCCC)[n+]1c(C)cc(C)cc1C.[O-][Cl+3]([O-])([O-])[O-]	58.4

----------
Test: Critical (phase transition) temperature Tc by differential scanning calorimetry
Type: physicochemical
Details: pure lipid
// values below are reported Tc (critical temperature), Pure

molecule	Tc (critical temperature), Pure
CCCCCCCC/C=C\CCCCCCCC(=O)OCC(C[n+]1c(C)cc(C)cc1C)OC(=O)CCCCCCC/C=C\CCCCCCCC.F[P-](F)(F)(F)(F)F (stereo not drawn) [Lipid 3AOle]	67.9 °C
CCCCCCCCCCCCCC(=O)OCC(COC(=O)CCCCCCCCCCCCC)[n+]1c(C)cc(C)cc1C.F[B-](F)(F)F [Lipid 5CMyr]	58.4 °C
CCCCCCCCCCCCCC(=O)OCC(COC(=O)CCCCCCCCCCCCC)[n+]1c(C)cc(C)cc1C.[I-] [Lipid 5EMyr]	60.8 °C
CCCCCCCCCC(=O)Oc1ccc(CC[n+]2c(C)cc(C)cc2C)cc1OC(=O)CCCCCCCCC.F[P-](F)(F)(F)(F)F [Lipid 7ACpc]	140.0 °C
CCCCCCCCCCCCCCCCCC(=O)OCC(COC(=O)CCCCCCCCCCCCCCCCC)[n+]1c(C)cc(C)cc1C.F[P-](F)(F)(F)(F)F [Lipid 5ASte]	79.6 °C
CCCCCCCC(=O)Oc1ccc(CC[n+]2c(C)cc(C)cc2C)cc1OC(=O)CCCCCCC.F[P-](F)(F)(F)(F)F [Lipid 7ACpy]	134.1 °C
CCCCCCCCCCCCCC(=O)OCC(COC(=O)CCCCCCCCCCCCC)[n+]1c(C)cc(C)cc1C.F[P-](F)(F)(F)(F)F [Lipid 5AMyr]	67.8 °C
CCCCCCCCCCCCCCCCCC(=O)Oc1ccc(CC[n+]2c(C)cc(C)cc2C)cc1OC(=O)CCCCCCCCCCCCCCCCC.F[P-](F)(F)(F)(F)F [Lipid 7ASte]	138.8 °C
CCCCCCCCCCCCCC(=O)OCC(COC(=O)CCCCCCCCCCCCC)[n+]1c(C)cc(C)cc1C.[Cl-] [Lipid 5DMyr]	76.3 °C
CCCCCCCCCCCC(=O)OCC(C[n+]1c(C)cc(C)cc1C)OC(=O)CCCCCCCCCCC.F[P-](F)(F)(F)(F)F (stereo not drawn) [Lipid 3ALau]	114.0 °C
CCCCCCCC/C=C\CCCCCCCC(=O)OCC(COC(=O)CCCCCCC/C=C\CCCCCCCC)[n+]1c(C)cc(C)cc1C.F[P-](F)(F)(F)(F)F [Lipid 5AOle]	17.0 °C
CCCCCCCCCCCCCCCC(=O)OCC(C[n+]1c(C)cc(C)cc1C)OC(=O)CCCCCCCCCCCCCCC.F[P-](F)(F)(F)(F)F (stereo not drawn) [Lipid 3APal]	123.5 °C
CCCCCCCCCCCCCC(=O)OCC(COC(=O)CCCCCCCCCCCCC)[n+]1c(C)cc(C)cc1C.[O-][Cl+3]([O-])([O-])[O-] [Lipid 5BMyr]	60.2 °C
CCCCCCCCCCCC(=O)OCC(COC(=O)CCCCCCCCCCC)[n+]1c(C)cc(C)cc1C.F[P-](F)(F)(F)(F)F [Lipid 5ALau]	58.2 °C
CCCCCCCCCCCCCC(=O)Oc1ccc(CC[n+]2c(C)cc(C)cc2C)cc1OC(=O)CCCCCCCCCCCCC.F[P-](F)(F)(F)(F)F [Lipid 7AMyr]	141.2 °C
CCCCCCCCCCCCCCCC(=O)Oc1ccc(CC[n+]2c(C)cc(C)cc2C)cc1OC(=O)CCCCCCCCCCCCCCC.F[P-](F)(F)(F)(F)F [Lipid 7APal]	140.0 °C
CCCCCCCCCCCC(=O)Oc1ccc(CC[n+]2c(C)cc(C)cc2C)cc1OC(=O)CCCCCCCCCCC.F[P-](F)(F)(F)(F)F [Lipid 7ALau]	140.7 °C
CCCCCCCCCCCCCC(=O)OCC(C[n+]1c(C)cc(C)cc1C)OC(=O)CCCCCCCCCCCCC.F[P-](F)(F)(F)(F)F (stereo not drawn) [Lipid 3AMyr]	121.3 °C
CCCCCCCC/C=C\CCCCCCCC(=O)Oc1ccc(CC[n+]2c(C)cc(C)cc2C)cc1OC(=O)CCCCCCC/C=C\CCCCCCCC.F[P-](F)(F)(F)(F)F [Lipid 7AOle]	106.8 °C
CCCCCCCCCCCCCCCCCC(=O)OCC(C[n+]1c(C)cc(C)cc1C)OC(=O)CCCCCCCCCCCCCCCCC.F[P-](F)(F)(F)(F)F (stereo not drawn) [Lipid 3ASte]	122.5 °C
CCCCCCCCCCCCCCCC(=O)OCC(COC(=O)CCCCCCCCCCCCCCC)[n+]1c(C)cc(C)cc1C.F[P-](F)(F)(F)(F)F [Lipid 5APal]	75.5 °C

----------
Test: Critical (phase transition) temperature Tc by differential scanning calorimetry
Format: physicochemical
Conditions: with cholesterol, 1:1 molar ratio
Lab note: compare Tc (critical temperature), With cholesterol (1:1 molar ratio) against 100 °C. Equal or greater, write yes. Smaller, write no.

compound	class_assignment
CCCCCCCCCCCCCCCC(=O)Oc1ccc(CC[n+]2c(C)cc(C)cc2C)cc1OC(=O)CCCCCCCCCCCCCCC.F[P-](F)(F)(F)(F)F	yes
CCCCCCCCCCCCCC(=O)OCC(COC(=O)CCCCCCCCCCCCC)[n+]1c(C)cc(C)cc1C.[I-]	no
CCCCCCCC(=O)Oc1ccc(CC[n+]2c(C)cc(C)cc2C)cc1OC(=O)CCCCCCC.F[P-](F)(F)(F)(F)F	yes
CCCCCCCCCCCCCCCCCC(=O)Oc1ccc(CC[n+]2c(C)cc(C)cc2C)cc1OC(=O)CCCCCCCCCCCCCCCCC.F[P-](F)(F)(F)(F)F	yes
CCCCCCCCCCCCCCCC(=O)OCC(COC(=O)CCCCCCCCCCCCCCC)[n+]1c(C)cc(C)cc1C.F[P-](F)(F)(F)(F)F	no
CCCCCCCCCCCCCC(=O)OCC(C[n+]1c(C)cc(C)cc1C)OC(=O)CCCCCCCCCCCCC.F[P-](F)(F)(F)(F)F (stereo not drawn)	yes
CCCCCCCC/C=C\CCCCCCCC(=O)OCC(C[n+]1c(C)cc(C)cc1C)OC(=O)CCCCCCC/C=C\CCCCCCCC.F[P-](F)(F)(F)(F)F (stereo not drawn)	no
CCCCCCCCCCCCCCCCCC(=O)OCC(C[n+]1c(C)cc(C)cc1C)OC(=O)CCCCCCCCCCCCCCCCC.F[P-](F)(F)(F)(F)F (stereo not drawn)	yes
CCCCCCCCCCCC(=O)OCC(C[n+]1c(C)cc(C)cc1C)OC(=O)CCCCCCCCCCC.F[P-](F)(F)(F)(F)F (stereo not drawn)	yes
CCCCCCCCCCCCCCCCCC(=O)OCC(COC(=O)CCCCCCCCCCCCCCCCC)[n+]1c(C)cc(C)cc1C.F[P-](F)(F)(F)(F)F	no
CCCCCCCCCCCCCC(=O)OCC(COC(=O)CCCCCCCCCCCCC)[n+]1c(C)cc(C)cc1C.[Cl-]	no
CCCCCCCC/C=C\CCCCCCCC(=O)OCC(COC(=O)CCCCCCC/C=C\CCCCCCCC)[n+]1c(C)cc(C)cc1C.F[P-](F)(F)(F)(F)F	no
CCCCCCCCCC(=O)Oc1ccc(CC[n+]2c(C)cc(C)cc2C)cc1OC(=O)CCCCCCCCC.F[P-](F)(F)(F)(F)F	yes
CCCCCCCCCCCCCC(=O)Oc1ccc(CC[n+]2c(C)cc(C)cc2C)cc1OC(=O)CCCCCCCCCCCCC.F[P-](F)(F)(F)(F)F	yes
